- measuredTarget: CaBbc1
- measurementDescription: SPOT peptide array binding signal intensity (averaged, normalized) (arbitrary units (background-subtracted, floor 0; scale differs between SH3 domains)); higher = stronger binding of the SH3 domain to the peptide
valueKind: SPOT peptide array binding signal intensity
// return just the number, without any unit appended

Below are worked cases with known answers.
[[record]]
binder = "MSPLGAPPPPPHKDH"
datavalue = 0.5

[[record]]
binder = "TTNRGPPPLPPRANV"
datavalue = 590

[[record]]
binder = "KKIRLIFTYPSTVGR"
datavalue = 86.8

[[record]]
binder = "SSAAPPPPPRRATPE"
datavalue = 268

[[record]]
binder = "ANNQGPPNLPARDKS"
datavalue = 20.5

[[record]]
binder = "FFRRSELYLPNSSKA"
datavalue = 0.25


Moving on to the next binder.
Exercise: Could you tell me which SPOT peptide array binding signal intensity is on file for PAPPPPPRASRPTPN ?
Solution: 657
